Target: Beta-2 adrenergic receptor (Homo sapiens) (UniProt P07550)
Sequence (P07550 whole entry, looked up): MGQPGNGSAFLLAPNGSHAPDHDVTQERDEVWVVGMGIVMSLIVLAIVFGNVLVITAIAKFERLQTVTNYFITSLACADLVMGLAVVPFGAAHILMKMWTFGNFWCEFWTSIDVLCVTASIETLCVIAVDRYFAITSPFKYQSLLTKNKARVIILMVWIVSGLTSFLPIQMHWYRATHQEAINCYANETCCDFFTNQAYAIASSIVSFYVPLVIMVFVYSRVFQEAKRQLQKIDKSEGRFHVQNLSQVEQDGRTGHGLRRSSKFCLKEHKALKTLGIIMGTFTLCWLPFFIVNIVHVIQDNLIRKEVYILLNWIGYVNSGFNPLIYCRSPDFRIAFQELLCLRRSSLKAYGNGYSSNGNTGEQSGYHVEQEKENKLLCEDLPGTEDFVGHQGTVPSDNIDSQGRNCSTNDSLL
Assay: Adrenergic beta2 receptor (ADRB2) small molecule antagonists, cell-based qHTS assay (AID 1963592); note: nearly all actives have a fitted effect of over 50% in size
Conditions: CHO-ADRB2 cells, isoproterenol-stimulated cAMP HTRF ratio, 0.5 h; series mostly up to 92.4 µM
Inconclusive results are not listed. Calls of active or inactive are those of the source. Calls come from the whole dose curve.
Possible outcomes: 1 (yes) for active, 0 (no) for inactive

molecule | classification
O=C(Nc1ccccc1)c1cc(Cl)ccc1O | 1 (yes)
C=CC(C)(CCC=C(C)C)OC(=O)/C=C/c1ccccc1 (centres undefined) | 0 (no)
CCCCNCC | 0 (no)
CC(C)=CCOc1ccc(/C=C/C(=O)c2ccc(OCC=C(C)C)cc2OCC(=O)O)cc1 | 0 (no)
COC(=O)[C@]1(C)CCC[C@@]2(C)[C@H]1CC=C1C=C(C(C)C)CC[C@@H]12 | 0 (no)
Nc1ccc(-c2ccc(F)cc2)cc1 | 0 (no)
C/C(C=O)=C\c1ccccc1 | 0 (no)
O=C1CCCC(=O)O1 | 0 (no)
OCCCCCCCCCCCCBr | 0 (no)
CC1(C)CCC(C)(C)c2cc(C(=O)Nc3ccc(C(=O)O)cc3)ccc21 | 0 (no)
CC1(C)O[C@@H]2C[C@H]3[C@@H]4CCC5=CC(=O)CC[C@]5(C)[C@@]4(F)[C@@H](O)C[C@]3(C)[C@]2(C(=O)CCl)O1 | 0 (no)
C=CCCCCCCC=C | 0 (no)
CN(C)C(C)(C)CO | 0 (no)
C(=C(c1ccccc1)c1ccccc1)c1ccccc1 | 0 (no)
CCCCCCCC/C=C/CCCCCCCC1=NCCN1CCO | 0 (no)
S=C([S-])NCCNC(=S)[S-].S=C([S-])NCCNC(=S)[S-].[Mn+2].[Zn+2] | 0 (no)
NC(CSCC(=O)O)C(=O)O (centres undefined) | 0 (no)
COC(C)CCO (centres undefined) | 0 (no)
C1COCO1 | 0 (no)
CC(C)(C)c1ccc(N)cc1 | 0 (no)
CCOc1ccc(NC(=O)CC(C)=O)cc1 | 0 (no)
O=C(Oc1ccccc1)c1ccc2ccccc2c1O | 0 (no)
Cc1ncc([N+](=O)[O-])n1CC(O)CCl (centres undefined) | 0 (no)
COc1cc(C(C)(C)C)c(O)c(C(C)(C)C)c1 | 0 (no)
